Test system: Leishmania donovani (amastigotes, MHOM-ET-67/L82 strain)
Assay: In vitro activity against Leishmania donovani
Assay type: cell-based
Conditions: selectivity index determined with L6 cells
endpoint_label: SI L. donovani

- C=CC1(C)CCC2=C(C1)C(=O)CC1C(C)(CO)CCCC21C (single isomer, unassigned; ent-7): 3
- C=CC1(C)C=C2C(O)CC3C4(C)COC(C4)CC3(C)C2CC1 (stereo not shown): 5
- C=C1C[C@@]23CC[C@@H]4[C@](C)(CO)[C@H](O)CC[C@@]4(C)[C@@H]2CC[C@@H]1C3 (single isomer, unassigned; ent-3) [Compound 1, ent-3-α-hydroxy-kaur-16-en-18-ol]: 16
- C=CC1(C)CCC2=C(C1)C(=O)CC1C2(C)CCC(O)C1(C)C (single isomer, unassigned; ent-7): 5

====

We begin with a simple list: items and their reported IC50.
Test system: Leishmania donovani (amastigotes, MHOM-ET-67/L82 strain)
Assay: In vitro activity against Leishmania donovani
Format: cell-based
Conditions: Leishmania donovani; MHOM-ET-67/L82 strain, amastigotes; geometric mean of 2 experiments ±SE (values marked a: only one experiment); read-out: IC50 L. donovani
endpoint_label: IC50 (µM)

• C=C1C[C@@]23CC[C@@H]4[C@](C)(CO)[C@H](O)CC[C@@]4(C)[C@@H]2CC[C@@H]1C3 (single isomer, unassigned; ent-3) [Compound 1, ent-3-α-hydroxy-kaur-16-en-18-ol] = 2.5
• C=CC1(C)CCC2=C(C1)C(=O)CC1C(C)(CO)CCCC21C (single isomer, unassigned; ent-7) [Compound 2, ent-7-oxo-pimara-8,15-diene-18-ol] = 18.2
• CCCCCCCCCCCCCCCCOP(=O)([O-])OCC[N+](C)(C)C [miltefosine, reference compound] = 0.049
• C=CC1(C)C=C2C(O)CC3C4(C)COC(C4)CC3(C)C2CC1 (centres unmarked) [Compound 4] = 21.9
• C=CC1(C)CCC2=C(C1)C(=O)CC1C2(C)CCC(O)C1(C)C (single isomer, unassigned; ent-7) [Compound 3, ent-7-oxo-pimara-8,15-diene-3β-ol] = 13.8

====

Assay: Cytotoxicity against mammalian cells
Assay type: cell-based, rat
Settings: L6-cell-line from rat-skeletal myoblasts; geometric mean of 2 experiments ±SE; read-out: IC50 L6 Cells (cytotoxicity)
We begin with a simple list: items and their reported IC50.
endpoint_label: IC50 (µM)

- C=C1C[C@@]23CC[C@@H]4[C@](C)(CO)[C@H](O)CC[C@@]4(C)[C@@H]2CC[C@@H]1C3 (single isomer, unassigned; ent-3) [Compound 1, ent-3-α-hydroxy-kaur-16-en-18-ol]: 40.2
- COc1cc([C@@H]2c3cc4c(cc3[C@H](O)[C@H]3COC(=O)[C@H]23)OCO4)cc(OC)c1OC [podophyllotoxin, reference compound]: 0.008

====

System: Plasmodium falciparum (intraerythrocytic forms, NF54 IEF strain)
Experiment: In vitro activity against Plasmodium falciparum
Format: cell-based
Details: selectivity index determined with L6 cells
endpoint_label: SI P. falciparum

* C=CC1(C)CCC2=C(C1)C(=O)CC1C2(C)CCC(O)C1(C)C (single isomer, unassigned; ent-7) | 4
* C=CC1(C)C=C2C(O)CC3C4(C)COC(C4)CC3(C)C2CC1 (stereo not shown) | 6
* C=CC1(C)CCC2=C(C1)C(=O)CC1C(C)(CO)CCCC21C (single isomer, unassigned; ent-7) | 13
* C=C1C[C@@]23CC[C@@H]4[C@](C)(CO)[C@H](O)CC[C@@]4(C)[C@@H]2CC[C@@H]1C3 (single isomer, unassigned; ent-3) [Compound 1, ent-3-α-hydroxy-kaur-16-en-18-ol] | 11

====

Tested on: T. cruzi (amastigotes, Tulahuen C4 strain)
Assay: In vitro activity against T. cruzi
Assay type: cell-based, Trypanosoma cruzi
Conditions: Trypanosoma cruzi; Tulahuen C4 strain, amastigotes; geometric mean of 2 experiments ±SE (values marked a: only one experiment)
pIC50: −log10 of the molar value.
We begin with a simple list: items and their reported pIC50.
endpoint_label: pIC50

* C=CC1(C)CCC2=C(C1)C(=O)CC1C(C)(CO)CCCC21C (single isomer, unassigned; ent-7) | 4.81
* O=C(Cn1ccnc1[N+](=O)[O-])NCc1ccccc1 [benznidazole, reference compound] | 6.19
* C=CC1(C)CCC2=C(C1)C(=O)CC1C2(C)CCC(O)C1(C)C (single isomer, unassigned; ent-7) | 4.71
* C=C1C[C@@]23CC[C@@H]4[C@](C)(CO)[C@H](O)CC[C@@]4(C)[C@@H]2CC[C@@H]1C3 (single isomer, unassigned; ent-3) [Compound 1, ent-3-α-hydroxy-kaur-16-en-18-ol] | 4.25
* C=CC1(C)C=C2C(O)CC3C4(C)COC(C4)CC3(C)C2CC1 (centres unmarked) | 4.23

====

Test: Cytotoxicity against mammalian cells
Assay type: cell-based, rat
Settings: rat
pIC50: −log10 of the molar value.
We begin with a simple list: items and their reported pIC50.
endpoint_label: pIC50

* C=CC1(C)CCC2=C(C1)C(=O)CC1C2(C)CCC(O)C1(C)C (single isomer, unassigned; ent-7) [Compound 3, ent-7-oxo-pimara-8,15-diene-3β-ol] | 4.16
* C=CC1(C)CCC2=C(C1)C(=O)CC1C(C)(CO)CCCC21C (single isomer, unassigned; ent-7) [Compound 2, ent-7-oxo-pimara-8,15-diene-18-ol] | 4.32
* C=CC1(C)C=C2C(O)CC3C4(C)COC(C4)CC3(C)C2CC1 (stereo not drawn) [Compound 4] | 4.00
